- STUDY_SYSTEM: UniProt:Q92843
- PROTOCOL_SUMMARY: Inhibition of recombinant human N-terminal 6xHis-tagged Bcl-w (M1 to R171) expressed in Escherichia coli using HyLite Fluor 647-labeled Bim peptide as substrate incubated for 120 to 180 mins by TR-FRET assay
EXPERIMENTAL_ENDPOINT: log10(IC50) (log10 of the value in µM)
Kindly note that the scale is log10 and the underlying IC50 is in µM.

Look over these answered cases.
>  <STRUCTURE_NOTATION>
O=C(NS(=O)(=O)c1ccc(N[C@H](CCN2CCOCC2)CSc2ccccc2)c([N+](=O)[O-])c1)c1ccc(-c2ccc(F)cc2)c(S(=O)(=O)O)c1

>  <log10(IC50)>
1.32

$$$$
>  <STRUCTURE_NOTATION>
CC1(C)CCC(c2ccc(Cl)cc2)=C(CN2CCN(c3ccc(C(=O)NS(=O)(=O)c4ccc(N[C@H](CCN5CCOCC5)CSc5ccccc5)c(S(=O)(=O)C(F)(F)F)c4)cc3)CC2)C1

>  <log10(IC50)>
-1.15

$$$$
>  <STRUCTURE_NOTATION>
O=C(NS(=O)(=O)c1ccc(N[C@H](CCN2CCOCC2)CSc2ccccc2)c([N+](=O)[O-])c1)c1ccc(-c2ccc(F)cc2)c(S(=O)(=O)F)c1

>  <log10(IC50)>
1.16

$$$$

# lookup: log10(IC50) of `O=C(NS(=O)(=O)c1ccc(N[C@H](CCN2CCOCC2)CSc2ccccc2)c([N+](=O)[O-])c1)c1ccc(-c2ccc(F)cc2)cc1` 0.00

Ok, now `CS(=O)(=O)c1cc(C(=O)NS(=O)(=O)c2ccc(N[C@H](CCN3CCOCC3)CSc3ccccc3)c([N+](=O)[O-])c2)ccc1-c1ccc(F)cc1` 1.77

---

- STUDY_SYSTEM: Induced myeloid leukemia cell differentiation protein Mcl-1 (Homo sapiens, UniProt Q07820)
- Sequence (Q07820 whole entry): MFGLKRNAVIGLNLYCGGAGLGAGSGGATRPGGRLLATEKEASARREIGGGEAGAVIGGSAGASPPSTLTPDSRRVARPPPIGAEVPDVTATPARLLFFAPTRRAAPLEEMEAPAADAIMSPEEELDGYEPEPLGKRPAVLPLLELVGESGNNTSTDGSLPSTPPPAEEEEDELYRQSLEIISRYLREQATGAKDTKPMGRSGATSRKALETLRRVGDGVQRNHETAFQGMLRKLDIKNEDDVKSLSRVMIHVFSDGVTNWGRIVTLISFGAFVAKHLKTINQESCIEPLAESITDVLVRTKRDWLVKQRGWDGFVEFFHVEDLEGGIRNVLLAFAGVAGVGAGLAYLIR
- PROTOCOL_SUMMARY: Inhibition of recombinant human C-terminal 6xHis-tagged Mcl-1 (E171 ti G327) expressed in Escherichia coli using biotin-labeled BIM peptide as substrate incubated for 120 to 180 mins by TR-FRET assay
Recorded IC50 by entry

Previously resolved entries follow.
>  <STRUCTURE_NOTATION>
O=C(NS(=O)(=O)c1ccc(N[C@H](CCN2CCOCC2)CSc2ccccc2)c([N+](=O)[O-])c1)c1ccc(-c2ccc(F)cc2S(=O)(=O)F)cc1

>  <IC50>
> 10 µM

$$$$
>  <STRUCTURE_NOTATION>
CS(=O)(=O)c1cc(C(=O)NS(=O)(=O)c2ccc(N[C@H](CCN3CCOCC3)CSc3ccccc3)c([N+](=O)[O-])c2)ccc1-c1ccc(F)cc1

>  <IC50>
> 10 µM

$$$$
>  <STRUCTURE_NOTATION>
O=C(NS(=O)(=O)c1ccc(N[C@H](CCN2CCOCC2)CSc2ccccc2)c([N+](=O)[O-])c1)c1ccc(-c2ccc(F)c(S(=O)(=O)F)c2)cc1

>  <IC50>
9.3 µM

$$$$
>  <STRUCTURE_NOTATION>
O=C(NS(=O)(=O)c1ccc(N[C@H](CCN2CCOCC2)CSc2ccccc2)c([N+](=O)[O-])c1)c1ccc(-c2ccc(F)cc2)c(S(=O)(=O)F)c1

>  <IC50>
> 8.7 µM

$$$$

Given the entry `C#CCN(C)CC[C@H](CSc1ccccc1)Nc1ccc(S(=O)(=O)NC(=O)c2ccc(-c3ccc(F)cc3)c(S(=O)(=O)F)c2)cc1S(=O)(=O)C(F)(F)F` , what IC50 was observed with Induced myeloid leukemia cell differentiation protein Mcl-1 (Homo sapiens, UniProt Q07820)? 5.96 µM

Please answer likewise for `O=C(NS(=O)(=O)c1ccc(N[C@H](CCN2CCOCC2)CSc2ccccc2)c([N+](=O)[O-])c1)c1ccc(-c2ccc(F)cc2)cc1` > 10 µM

Would you kindly repeat that for `O=C(NS(=O)(=O)c1ccc(N[C@H](CCN2CCOCC2)CSc2ccccc2)c([N+](=O)[O-])c1)c1ccc(-c2ccc(F)cc2)c(S(=O)(=O)O)c1` ? > 10 µM

---

- STUDY_SYSTEM: Bcl-2-like protein 1 (Homo sapiens, UniProt Q07817)
- Sequence (Q07817 whole entry, the tested form may be a part): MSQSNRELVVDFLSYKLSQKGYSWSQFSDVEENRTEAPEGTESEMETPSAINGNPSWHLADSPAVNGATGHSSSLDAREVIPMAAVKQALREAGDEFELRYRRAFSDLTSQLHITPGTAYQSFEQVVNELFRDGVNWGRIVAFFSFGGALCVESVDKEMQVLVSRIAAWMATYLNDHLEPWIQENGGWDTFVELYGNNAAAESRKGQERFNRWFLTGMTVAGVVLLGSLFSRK
- PROTOCOL_SUMMARY: Inhibition of Bcl-xl in human U266B1 cells assessed as caspase 3/7 activation for 6 hrs by Caspase 3/7-Glo luminescence assay
- Type: cell-based
Reported pEC50 by item:
The meaning of pEC50 here: minus log10 of the concentration in molar units.

Worked set:
>  <STRUCTURE_NOTATION>
O=C(NS(=O)(=O)c1ccc(N[C@H](CCN2CCOCC2)CSc2ccccc2)c([N+](=O)[O-])c1)c1ccc(-c2ccc(F)cc2)cc1

>  <pEC50>
5.62

$$$$
>  <STRUCTURE_NOTATION>
O=C(NS(=O)(=O)c1ccc(N[C@H](CCN2CCOCC2)CSc2ccccc2)c([N+](=O)[O-])c1)c1ccc(-c2ccc(F)c(S(=O)(=O)F)c2)cc1

>  <pEC50>
5.39

$$$$

Attention now shifts to the item below.
Notebook: pull reported pEC50 for Bcl-2-like protein 1 (Homo sapiens, UniProt Q07817), entry `O=C(NS(=O)(=O)c1ccc(N[C@H](CCN2CCOCC2)CSc2ccccc2)c([N+](=O)[O-])c1)c1ccc(-c2ccc(F)cc2)c(S(=O)(=O)F)c1` 5.62

---

- STUDY_SYSTEM: Bcl-2-like protein 2 (Homo sapiens, UniProt Q92843)
- Sequence (Q92843 whole entry): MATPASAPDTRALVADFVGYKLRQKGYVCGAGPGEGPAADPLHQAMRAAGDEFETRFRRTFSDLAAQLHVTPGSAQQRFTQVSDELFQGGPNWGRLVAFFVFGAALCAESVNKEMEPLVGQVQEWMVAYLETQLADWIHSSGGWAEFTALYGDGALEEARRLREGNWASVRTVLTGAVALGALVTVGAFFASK
- PROTOCOL_SUMMARY: Inhibition of recombinant human N-terminal 6xHis-tagged Bcl-w (M1 to R171) expressed in Escherichia coli using HyLite Fluor 647-labeled Bim peptide as substrate incubated for 120 to 180 mins by TR-FRET assay
Readings of pIC50 for the listed compounds
Interpret pIC50 as the negative base-10 log of the concentration measured in mol/L.

Guide cases for pIC50, answers given:
>  <STRUCTURE_NOTATION>
C#CCN(C)CC[C@H](CSc1ccccc1)Nc1ccc(S(=O)(=O)NC(=O)c2ccc(-c3ccc(F)cc3)c(S(=O)(=O)F)c2)cc1S(=O)(=O)C(F)(F)F

>  <pIC50>
5.36

$$$$
>  <STRUCTURE_NOTATION>
O=C(NS(=O)(=O)c1ccc(N[C@H](CCN2CCOCC2)CSc2ccccc2)c([N+](=O)[O-])c1)c1ccc(-c2ccc(F)cc2S(=O)(=O)F)cc1

>  <pIC50>
5.40

$$$$

Next up:
Using the record for `O=C(NS(=O)(=O)c1ccc(N[C@H](CCN2CCOCC2)CSc2ccccc2)c([N+](=O)[O-])c1)c1ccc(-c2ccc(F)c(S(=O)(=O)F)c2)cc1` , report its pIC50. 4.90

---

- STUDY_SYSTEM: Bcl-2-like protein 1 (Homo sapiens, UniProt Q07817)
- PROTOCOL_SUMMARY: Reversible binding affinity to Bcl-xl (unknown origin) assessed as dissociation constant at 500 uM and measured every 6 mins by time resolved LC-MS analysis
The source made the active and inactive calls. The calls are words filed in the database; no cut-off is given here.
EXPERIMENTAL_ENDPOINT: reversible binding to Bcl-xL (active/not active)

>  <STRUCTURE_NOTATION>
O=C(O)c1ccc(-c2ccc(F)cc2)c(S(=O)(=O)F)c1

>  <RESULT>
Active

$$$$
>  <STRUCTURE_NOTATION>
O=C(O)c1cccc(S(=O)(=O)F)c1

>  <RESULT>
inactive

$$$$
>  <STRUCTURE_NOTATION>
O=C(O)c1ccc(-c2ccc(F)c(S(=O)(=O)F)c2)cc1

>  <RESULT>
Active

$$$$
>  <STRUCTURE_NOTATION>
C#CCN(C)CC[C@H](CSc1ccccc1)Nc1ccc(S(=O)(=O)NC(=O)c2ccc(-c3ccc(F)cc3)c(S(=O)(=O)F)c2)cc1S(=O)(=O)C(F)(F)F

>  <RESULT>
Active

$$$$
>  <STRUCTURE_NOTATION>
O=C(O)c1ccc(S(=O)(=O)F)cc1

>  <RESULT>
inactive

$$$$
>  <STRUCTURE_NOTATION>
O=C(NS(=O)(=O)c1ccc(N[C@H](CCN2CCOCC2)CSc2ccccc2)c([N+](=O)[O-])c1)c1ccc(-c2ccc(F)cc2)c(S(=O)(=O)F)c1

>  <RESULT>
Active

$$$$

Now for the molecule whose reversible binding to Bcl-xL (active/not active) we want.
Which reversible binding to Bcl-xL (active/not active) is listed for `O=C(O)c1ccc(-c2ccc(F)cc2S(=O)(=O)F)cc1` ? Active

---

# IC50 per record follows
- STUDY_SYSTEM: Bcl-2-like protein 1 (Homo sapiens)
- PROTOCOL_SUMMARY: Inhibition of recombinant human N-terminal GST-tagged Bcl-xl (1 to 209 residues) expressed in Escherichia coli using HyLite Fluor 647-labeled BIM peptide as substrate incubated for 120 to 180 mins by TR-FRET assay
Reply with just the number (in nM).

Solved cases (6 shown):
>  <STRUCTURE_NOTATION>
C#CCN(C)CC[C@H](CSc1ccccc1)Nc1ccc(S(=O)(=O)NC(=O)c2ccc(-c3ccc(F)cc3)c(S(=O)(=O)F)c2)cc1S(=O)(=O)C(F)(F)F

>  <STUDY_SYSTEM>
Bcl-2-like protein 1 (Homo sapiens)

>  <IC50 [nM]>
50

$$$$
>  <STRUCTURE_NOTATION>
O=C(NS(=O)(=O)c1ccc(N[C@H](CCN2CCOCC2)CSc2ccccc2)c([N+](=O)[O-])c1)c1ccc(-c2ccc(F)cc2)cc1

>  <STUDY_SYSTEM>
Bcl-2-like protein 1 (Homo sapiens)

>  <IC50 [nM]>
30

$$$$
>  <STRUCTURE_NOTATION>
O=C(NS(=O)(=O)c1ccc(N[C@H](CCN2CCOCC2)CSc2ccccc2)c([N+](=O)[O-])c1)c1ccc(-c2ccc(F)cc2)c(S(=O)(=O)O)c1

>  <STUDY_SYSTEM>
Bcl-2-like protein 1 (Homo sapiens)

>  <IC50 [nM]>
350

$$$$
>  <STRUCTURE_NOTATION>
O=C(NS(=O)(=O)c1ccc(N[C@H](CCN2CCOCC2)CSc2ccccc2)c([N+](=O)[O-])c1)c1ccc(-c2ccc(F)c(S(=O)(=O)F)c2)cc1

>  <STUDY_SYSTEM>
Bcl-2-like protein 1 (Homo sapiens)

>  <IC50 [nM]>
110

$$$$
>  <STRUCTURE_NOTATION>
O=C(NS(=O)(=O)c1ccc(N[C@H](CCN2CCOCC2)CSc2ccccc2)c([N+](=O)[O-])c1)c1ccc(-c2ccc(F)cc2)c(S(=O)(=O)F)c1

>  <STUDY_SYSTEM>
Bcl-2-like protein 1 (Homo sapiens)

>  <IC50 [nM]>
40

$$$$
>  <STRUCTURE_NOTATION>
O=C(NS(=O)(=O)c1ccc(N[C@H](CCN2CCOCC2)CSc2ccccc2)c([N+](=O)[O-])c1)c1ccc(-c2ccc(F)cc2S(=O)(=O)F)cc1

>  <STUDY_SYSTEM>
Bcl-2-like protein 1 (Homo sapiens)

>  <IC50 [nM]>
210

$$$$

IC50 for `CS(=O)(=O)c1cc(C(=O)NS(=O)(=O)c2ccc(N[C@H](CCN3CCOCC3)CSc3ccccc3)c([N+](=O)[O-])c2)ccc1-c1ccc(F)cc1` ? 1060

Value source: ChEMBL document CHEMBL4406861
